Origin of the recorded values: patent EP4707304A1

Quick reference: OD450 of the listed items.
experimental_system: T1, VLP-hCLDN6 (human) (UniProt P56747)
T1 sequence: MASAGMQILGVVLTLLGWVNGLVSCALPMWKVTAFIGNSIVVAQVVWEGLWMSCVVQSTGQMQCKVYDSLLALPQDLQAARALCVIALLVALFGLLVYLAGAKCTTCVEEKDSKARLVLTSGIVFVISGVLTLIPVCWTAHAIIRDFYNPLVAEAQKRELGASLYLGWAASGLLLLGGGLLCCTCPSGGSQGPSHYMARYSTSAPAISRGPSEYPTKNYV
method: ELISA, coated VLP-hCLDN6, 100 ul antibody sample, HRP-Protein A
Keep the answer to the number alone.

{"binder": "humanized antibody hAb-20 (antibody, V domains shown) VH: EVKLVESGGGLVQPGGSLRLSCAASGFTFNSYTMSWVRQTPAKRLEWVVTISSGGGRTYYPDSVKGRFTISRDNAKNTLYLQMSSLRAEDTAVYYCIRGDYRYDGFAYWGQGTLVTVSS VL: DIQMTQSPSSLSASVGDRVTITCRASENIDSYLAWYQQKPGKSPQLLVYASTLLQDGVPSRFSGSRSGTQFTLTISSLQPEDFATYYCQHYYSIPYTFGSGTKLEIK", "measured_result": 1.81}
{"binder": "humanized antibody hAb-9 (antibody, V domains shown) VH: EVKLVESGGGLVKPGGSLRLSCAASGFTFNSYTMSWVRQAPGKRLEWVVTISSGGGRTYYPDSVKGRFTISRDNAKNTLYLQMSSLRAEDTAVYYCIRGDYRYDGFAYWGQGTLVTVSS VL: DIQMTQSPSSLSASVGDRVTITCRASENIDSYLAWYQQKPGKSPQLLVYASTLLVDGVPSRFSGSRSGTQFSLTISSLQPEDVARYYCQHYYSIPYTFGSGTKLEIK", "measured_result": 1.84}

Return OD450 (reported value) for this binder: humanized antibody hAb-15 (antibody, V domains shown) VH: EVKLVESGGGLVQPGGSLRLSCAASGFTFNSYTMSWVRQAPGKRLEWVVTISSGGGRTYYPDSVKGRFTISRDNAKNTLYLQMSSLRAEDTAVYYCIRGDYRYDGFAYWGQGTLVTVSS VL: DIQMTQSPSSLSASVGDRVTITCRASENIDSYLAWYQQKPGKSPQLLVYASTLLQDGVPSRFSGSRSGTQFTLTISSLQPEDVARYYCQHYYSIPYTFGSGTKLEIK 1.78
